Where do these numbers come from? They come from patent US12146004B2.

Consider the following compounds and their measured MIC E. coli 060 readings.
# System: Escherichia coli
# Assay type: cell-based
Bridge positions count the residues as written; N and C are the ends. Square brackets hold non-standard residues; d marks the D form. Peptide text beside a SMILES is read from it. * marks the point of attachment. ξ: configuration not given here. dBip = N[C@H](Cc1ccc(-c2ccccc2)cc1)C(=O)O; Octanoyl(6-Me) = CCC(C)CCCCC(=O)*; Thr(3ξ) = CC(O)[C@H](N)C(=O)O; X1 = CC(C)CN1CCNC[C@H]1C(=O)*; Dab = NCC[C@H](N)C(=O)O; Dap = NC[C@H](N)C(=O)O
Give your result in µg/mL as a bare value.

Entry CC(C)C[C@@H]1NC(=O)[C@@H](Cc2ccc(-c3ccccc3)cc2)NC(=O)[C@H](CCN)NC(=O)[C@@H](NC(=O)[C@H](CN)NC(=O)[C@@H](NC(=O)[C@@H]2CNCCN2CC(C)C)C(C)O)CCNC(=O)[C@H]([C@@H](C)O)NC(=O)[C@H](CCN)NC(=O)[C@H](CCN)NC1=O (stereo partly drawn) [Example 5] (X1-[Thr(3ξ)][Dap][Dab][Dab][dBip]L[Dab][Dab]T; lactam 3-C) — recorded MIC E. coli 060 = 2

Documented MIC E. coli 060 of CC(C)CC(CN)C(=O)N[C@H](C(=O)N[C@@H](CN)C(=O)N[C@H]1CCNC(=O)[C@H]([C@@H](C)O)NC(=O)[C@H](CCN)NC(=O)[C@H](CCN)NC(=O)[C@H](CC(C)C)NC(=O)[C@@H](Cc2ccc(-c3ccccc3)cc2)NC(=O)[C@H](CCN)NC1=O)C(C)O (single isomer, unassigned; isomer 1) [Example 15] : 32

Continuing:
The compound listed as CCC(C)CCCCC(=O)N[C@@H](CCN)C(=O)N[C@H](C(=O)N[C@@H](CCN)C(=O)N[C@H]1CCNC(=O)[C@H]([C@@H](C)O)NC(=O)[C@H](CCN)NC(=O)[C@H](CCN)NC(=O)[C@H](CC(C)C)NC(=O)[C@@H](Cc2ccc(-c3ccccc3)cc2)NC(=O)[C@H](CCN)NC1=O)C(C)O (stereo partly drawn) [Example C3, reference compound] ({Octanoyl(6-Me)}-[Dab][Thr(3ξ)][Dab][Dab][Dab][dBip]L[Dab][Dab]T; lactam 4-C) shows MIC E. coli 060 equal to 4

----------
Quick reference for MIC E. coli 058 among some compounds
# System: Escherichia coli
# Type: cell-based
Supply the numeric figure in mg/L, leaving out any unit text.

Entry CC(C)CC1CNCC(C(=O)N[C@H](C(=O)N[C@@H](CN)C(=O)N[C@H]2CCNC(=O)[C@H]([C@@H](C)O)NC(=O)[C@H](CCN)NC(=O)[C@H](CCN)NC(=O)[C@H](CC(C)C)NC(=O)[C@@H](Cc3ccc(-c4ccccc4)cc3)NC(=O)[C@H](CCN)NC2=O)C(C)O)C1 (single isomer, unassigned; isomer 2) [Example 4] ; MIC E. coli 058 = 0.5

Could you now look at the following compound, please?
# MIC E. coli 058 of CC(C)C[C@@H]1NC(=O)[C@@H](CC2CCCCC2)NC(=O)[C@H](CCN)NC(=O)[C@@H](NC(=O)[C@H](CCN)NC(=O)[C@@H](NC(=O)C(CCN)c2cccs2)[C@@H](C)O)CCNC(=O)[C@H]([C@@H](C)O)NC(=O)[C@H](CCN)NC(=O)[C@H](CCN)NC1=O (single isomer, unassigned; isomer 2) [Example 70] = 8
